biological target: UniProtKB P09960; assay: Inhibitory activity against LTA 4 hydrolase in aminopeptidase assay
Sequence (P09960 whole entry): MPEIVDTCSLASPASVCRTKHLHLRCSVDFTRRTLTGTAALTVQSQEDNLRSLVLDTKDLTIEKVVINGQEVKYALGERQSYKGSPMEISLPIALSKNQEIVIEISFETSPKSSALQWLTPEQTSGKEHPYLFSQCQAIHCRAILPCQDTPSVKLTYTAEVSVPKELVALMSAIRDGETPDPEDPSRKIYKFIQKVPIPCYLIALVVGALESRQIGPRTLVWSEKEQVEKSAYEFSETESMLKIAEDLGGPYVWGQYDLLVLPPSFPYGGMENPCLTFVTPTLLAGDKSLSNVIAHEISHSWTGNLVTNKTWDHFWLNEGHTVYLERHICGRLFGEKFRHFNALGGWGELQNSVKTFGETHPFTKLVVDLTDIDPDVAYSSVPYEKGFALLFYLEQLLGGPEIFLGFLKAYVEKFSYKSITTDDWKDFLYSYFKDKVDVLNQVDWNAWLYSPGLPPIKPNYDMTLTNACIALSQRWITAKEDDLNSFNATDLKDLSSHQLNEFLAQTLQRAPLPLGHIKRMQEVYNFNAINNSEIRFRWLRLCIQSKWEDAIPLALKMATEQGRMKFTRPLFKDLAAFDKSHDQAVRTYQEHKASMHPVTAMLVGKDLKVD
assay.metric: Ki

> print(dat)
                                   molecule     tested.system  reported
1  C[C@H](NC(=O)[C@@H](CC(=O)NO)Cc1ccccc1)C(=O)O [KELATORPHAN]  UniProtKB P09960     10 nM

* * *

Target: Angiotensin-converting enzyme (Oryctolagus cuniculus, UniProt P12822)
Sequence (P12822 whole entry): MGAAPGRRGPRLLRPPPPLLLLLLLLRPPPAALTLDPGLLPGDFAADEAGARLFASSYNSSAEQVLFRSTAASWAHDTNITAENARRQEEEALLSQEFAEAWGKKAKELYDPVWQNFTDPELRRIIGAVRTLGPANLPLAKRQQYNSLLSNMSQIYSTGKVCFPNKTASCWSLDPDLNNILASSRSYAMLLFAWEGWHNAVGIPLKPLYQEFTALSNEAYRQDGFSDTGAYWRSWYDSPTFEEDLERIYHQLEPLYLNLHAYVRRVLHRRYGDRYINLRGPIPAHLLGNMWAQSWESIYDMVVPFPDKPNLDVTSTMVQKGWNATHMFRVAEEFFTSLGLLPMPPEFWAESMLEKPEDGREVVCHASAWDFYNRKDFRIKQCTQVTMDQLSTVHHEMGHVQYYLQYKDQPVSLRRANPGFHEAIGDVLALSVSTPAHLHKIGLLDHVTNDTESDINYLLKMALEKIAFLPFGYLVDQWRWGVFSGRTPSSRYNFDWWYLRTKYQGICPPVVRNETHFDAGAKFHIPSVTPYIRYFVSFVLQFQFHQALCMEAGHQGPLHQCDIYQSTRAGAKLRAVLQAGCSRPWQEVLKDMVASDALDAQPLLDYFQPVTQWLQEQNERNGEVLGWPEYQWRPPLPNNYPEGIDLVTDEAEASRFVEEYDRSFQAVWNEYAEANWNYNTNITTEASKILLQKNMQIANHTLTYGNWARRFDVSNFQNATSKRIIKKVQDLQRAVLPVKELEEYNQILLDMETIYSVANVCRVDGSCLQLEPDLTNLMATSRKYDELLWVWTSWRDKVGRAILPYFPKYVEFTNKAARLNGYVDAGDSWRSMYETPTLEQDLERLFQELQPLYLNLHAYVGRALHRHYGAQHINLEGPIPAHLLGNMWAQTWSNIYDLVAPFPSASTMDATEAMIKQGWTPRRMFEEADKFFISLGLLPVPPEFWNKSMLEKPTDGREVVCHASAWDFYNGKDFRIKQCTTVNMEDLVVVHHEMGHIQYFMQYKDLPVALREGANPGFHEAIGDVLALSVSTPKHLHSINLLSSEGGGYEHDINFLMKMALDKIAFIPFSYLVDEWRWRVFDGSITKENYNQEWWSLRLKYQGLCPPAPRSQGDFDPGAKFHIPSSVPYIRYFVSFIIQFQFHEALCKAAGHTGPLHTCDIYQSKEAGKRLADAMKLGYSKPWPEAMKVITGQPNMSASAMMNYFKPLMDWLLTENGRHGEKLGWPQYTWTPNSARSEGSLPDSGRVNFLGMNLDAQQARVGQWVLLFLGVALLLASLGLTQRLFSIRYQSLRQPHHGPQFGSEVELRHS
Test: Inhibitory activity against rabbit lung angiotensin-converting enzyme(ACE)
assay.metric: IC50 (µM)

> print(dat)
                                   compound  assay.metric  censoring.sign  reported
1  C[C@H](NC(=O)[C@@H](CC(=O)NO)CC1CCCCC1)C(=O)O          IC50               >       100
2  C[C@H](NC(=O)[C@@H](CCC(=O)NO)Cc1ccccc1)C(=O)O          IC50               =        20
3  O=C(C[C@@H](Cc1ccccc1)C(=O)N1CCCC[C@@H]1C(=O)O)NO          IC50               >       100
4  C[C@H](NC(=O)C(CS)Cc1ccccc1)C(=O)O (some centres undefined)          IC50               =       0.2
5  O=C(C[C@@H](Cc1ccccc1)C(=O)N1CCCC[C@H]1C(=O)O)NO          IC50               =        40
6  O=C(C[C@@H](Cc1ccccc1)C(=O)N[C@@H](CC1CCCCC1)C(=O)O)NO          IC50               >       100
7  C[C@@H](C(=O)O)N(C)C(=O)[C@@H](CC(=O)NO)Cc1ccccc1          IC50               >       100
8  CSCC[C@@H](NC(=O)[C@@H](CC(=O)NO)Cc1ccccc1)C(=O)O          IC50               =        20
9  C[C@H](NC(=O)[C@@H](CC(=O)O)Cc1ccccc1)C(=O)O          IC50               >       100

Numbers sourced from ChEMBL document CHEMBL1128059.
